- Procedure Summary: Metabolic stability in rat microsomes assessed as compound remaining after 60 mins
- Type: ADME, Microsome
- Test Settings: read-out: Stability
Measured Attribute: remaining at 1 h (%)
Answers are plain numbers, in %.

Q: Return the recorded remaining at 1 h value; entry: C[C@@H](O[C@H]1CN2C(=O)[C@H]3C[C@@](C)(O)C[C@H]3[C@H]2[C@@H]1c1ccc(F)cc1)c1cc(C(F)(F)F)cc(C(F)(F)F)c1
Ans: 96

###

- Procedure Summary: Binding affinity to potassium channel IKr
One threshold, 2000 nM, splits the recorded IC50 values: lower ones are yes, equal or higher ones are no.

Worked cases, answers included:
Compound	Group Label
C[C@@H](O[C@H]1CN2C(=O)[C@H]3C[C@H](N)C[C@H]3[C@H]2[C@@H]1c1ccc(F)cc1)c1cc(C(F)(F)F)cc(C(F)(F)F)c1	yes
C[C@@H](O[C@H]1CN2C(=O)[C@H]3C[C@@H](N)C[C@H]3[C@H]2[C@@H]1c1ccc(F)cc1)c1cc(C(F)(F)F)cc(C(F)(F)F)c1	yes
CC[C@]1(O)C[C@H]2[C@H]3[C@H](c4ccc(F)cc4)[C@@H](O[C@H](C)c4cc(C(F)(F)F)cc(C(F)(F)F)c4)CN3C(=O)[C@H]2C1	yes
C[C@@H](O[C@H]1CN2C(=O)C3CNCC3[C@H]2[C@@H]1c1ccc(F)cc1)c1cc(C(F)(F)F)cc(C(F)(F)F)c1 (stereo in doubt; 6b) [FIRST ELUDED ISOMER]	no

With those in mind, consider the next compound.
Q: Does this compound meet the criterion IC50 < 2000 nM? C[C@@H](O[C@H]1CN2C(=O)C3CN(C4=CC(=O)CC4)CC3[C@H]2[C@@H]1c1ccc(F)cc1)c1cc(C(F)(F)F)cc(C(F)(F)F)c1 (stereo in doubt; 18b) [FIRST ELUDED ISOMER]
Ans: yes

###

- Procedure Summary: Ratio of drug level in brain to plasma in Mongolian gerbil
- Type: ADME, Meriones unguiculatus
- Test Settings: read-out: BPR
Measured Attribute: Kp
Answers are plain numbers.

Q: Return the recorded Kp value; entry: C[C@@H](O[C@H]1CN2C(=O)[C@H]3C[C@@](C)(O)C[C@H]3[C@H]2[C@@H]1c1ccc(F)cc1)c1cc(C(F)(F)F)cc(C(F)(F)F)c1
Ans: 0.5

###

- Assayed Target: Substance-P receptor (Homo sapiens)
- Sequence (P25103 whole entry): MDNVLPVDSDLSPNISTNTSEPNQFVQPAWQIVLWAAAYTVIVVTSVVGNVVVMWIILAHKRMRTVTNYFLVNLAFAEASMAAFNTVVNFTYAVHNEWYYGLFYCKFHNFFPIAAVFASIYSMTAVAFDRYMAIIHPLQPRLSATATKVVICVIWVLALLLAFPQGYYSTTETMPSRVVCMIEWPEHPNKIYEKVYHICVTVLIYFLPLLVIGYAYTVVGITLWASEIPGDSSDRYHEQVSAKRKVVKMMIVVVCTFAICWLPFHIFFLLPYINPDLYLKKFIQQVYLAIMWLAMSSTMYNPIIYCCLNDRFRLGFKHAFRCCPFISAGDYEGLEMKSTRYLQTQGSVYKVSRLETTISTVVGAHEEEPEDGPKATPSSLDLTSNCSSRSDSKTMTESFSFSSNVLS
- Procedure Summary: Antagonist activity at human recombinant NK1 receptor expressed in CHO cells assessed as remaining substance P level at 100 nM after 30 mins by [H3]-inositol phosphate release assay
- Assay type: functional, cell-based
Measured Attribute: Activity (%)
Give bare numbers, in %.

Smiles Record	Activity [%]
CC[C@@]1(O)C[C@H]2[C@H]3[C@H](c4ccc(F)cc4)[C@@H](O[C@H](C)c4cc(C(F)(F)F)cc(C(F)(F)F)c4)CN3C(=O)[C@H]2C1	31

Each of the following entries comes with a recorded value; kindly state Activity for each.
1. C[C@@H](O[C@H]1CN2C(=O)[C@H]3C[C@H](NCc4ccccc4)C[C@H]3[C@H]2[C@@H]1c1ccc(F)cc1)c1cc(C(F)(F)F)cc(C(F)(F)F)c1
2. C[C@@H](O[C@H]1CN2C(=O)[C@H]3C[C@@](C)(O)C[C@H]3[C@H]2[C@@H]1c1ccc(F)cc1)c1cc(C(F)(F)F)cc(C(F)(F)F)c1

Ans:
1. 4
2. 3
